# System: HT29 colon
# method: NCI-60 one-dose screen, 48 h (100 = growth as untreated, 0 = no growth, -100 = all killed)
# run conditions: 10 µM unless noted
This is part of a sample that, as a whole, favours compounds with a hit. Of some 83,000 tested, about 20% had one in any assay.
property label: growth (%)

1) COc1ccccc1/C=C/C=N/NC1=NC2C(S1)N(C)C(=O)N2c1ccccc1 (configuration not stated) : 15.9
2) CC(C)=CCc1c2c(c(O)c3c1O[C@]14C(=C[C@@H]5C[C@H]1C(C)(C)O[C@@]4(C/C=C(/C)C(=O)O)C5=O)C3=O)CC(O)C(C)(C)O2 (some centres not stated) : -8.66
3) COC[C@]12CC[C@@H](C)[C@H](C)[C@H]1C1=CC[C@@H]3[C@@]4(C)CCCNC(C)(C)[C@@H]4CC[C@@]3(C)[C@]1(C)CC2 : 0.874
4) IP(CCCSc1n(Cc2ccc3ccccc3c2)c(-c2ccccc2)c(-c2ccccc2)[n+]1Cc1ccc2ccccc2c1)(c1ccccc1)(c1ccccc1)c1ccccc1 : 2.7
5) C#CCOc1ccc(/C=N/Nc2nc(-c3cc(Cl)ccc3Cl)cs2)cc1 : 110
6) O=C(CN1CCN(c2cc(=O)n(-c3ccccc3)c3ccccc23)CC1)Nc1ccc([N+](=O)[O-])cc1 : 105
7) C/C(Cc1ccc(Cl)cc1)=C(/c1ccccc1)c1ccc(OCCN)cc1 : 102
8) CCOC(=O)c1c(NC(=O)c2cccc(C(F)(F)F)c2)sc2c(CN3CCN(C)CC3)c(O)ccc12 : -31.6
9) COc1ccc(Cn2cc3c(c2-c2ccccc2)CCCc2cnoc2-3)cc1 : 20.4
10) O=C1c2c(c3c4cc(Br)ccc4[nH]c3c3ccc4ccccc4c23)C(=O)N1CCN1CCCCC1 : 10.3
11) Oc1ccccc1-c1nnc(SCc2ccc(O)c3ncccc23)n1-c1ccccc1 : 14.6
12) COc1cc(NC2=C(Cl)C(=O)c3nc(C)ccc3C2=O)cc(OC)c1 : 24.9
13) CCNC(=O)Oc1ccc(/C(=C(/C)c2ccc(Cl)cc2)c2ccc(OCCN3CCCC3)cc2)cc1 : 19.6
14) O=c1c2ccccc2nc(COc2ccccc2)n1/N=C/C=C/c1ccccc1 : 98.1
15) CN(C)C(=O)c1ccccc1-n1cnc2ccccc2c1=O : 103
16) O=C(N/N=C\c1ccc(Cl)cc1)c1ccc2nc(-c3ccc(Br)cc3)[nH]c2c1 : -52
17) CCC(=O)Nc1ccc(-c2nc(-c3cccc(O)c3)c(-c3ccnc(Br)c3)[nH]2)cc1 : 51.7
18) Cn1ccnc1C(=O)/C=C/c1ccc(C(=O)Nc2ccc(NC(=O)CCNC(=O)c3csc(Br)n3)cc2)cc1 : 13.2
19) CCOC(=O)Nc1cccc(-n2cnc3cc(-c4ccc(O)cc4)ccc32)c1 : 5.49
20) O=C1Nc2ccc(Cl)cc2/C1=C/c1ccc(OCc2ccc(Br)cc2F)cc1 : 104
21) N#Cc1ccc(S(=O)(=O)Nc2ccc(-c3cnc(N)[nH]3)cc2)cc1 : 98.5
22) Cc1ccc(/C=C/c2nn3c(-c4ccco4)nnc3s2)cc1 : 103
23) CN(c1ccc(Cl)cc1)S(=O)(=O)c1ccc(-c2cnc(C3CC3)o2)cc1 : 15
24) Cc1cn(-c2cc(NC(=O)c3cncc(C#Cc4cnc5ccc(O[C@H]6CCOC6)nn45)c3)cc(C(F)(F)F)c2)cn1 : 69
25) Nc1cc(F)ccc1NC(=O)c1ccc(NC(=O)C/C=C/c2cccnc2)cn1 : 11.4
26) Cc1ccc(S(=O)(=O)N/N=C/c2cn(-c3ccc(F)cc3)nc2-c2ccc(S(C)(=O)=O)cc2)cc1 : 105
27) O=C(O)c1ccc(-n2cc(CNc3ccc(Cl)cc3)c(-c3ccc(F)cc3)n2)cc1 : 112
28) Nc1ccc(-c2nnc(SCc3ccc(O)c4ncccc34)o2)cc1 : 8.36
29) NC(N)=NS(=O)(=O)c1ccc(N=NC2C(=O)NN(c3ccccc3)C2=O)cc1 (configuration not stated) : 112
30) O=C(NNc1nc2cc(F)c(F)cc2n2cccc12)c1ncccn1 : 34.3
31) CCCCCCNC(=O)Oc1ccc(/C(=C(/C)c2ccc(Cl)cc2)c2ccc(OCCN3CCCC3)cc2)cc1 : -17.7
32) Cc1nn(-c2ccccc2)cc1/C=N/Nc1nc(Nc2ccccc2)nc(Nc2ccc(S(N)(=O)=O)cc2)n1 : 5.91
33) COc1ccc(N2C(=O)c3cc(OC)c(OC)cc3NC2SCc2ccccc2)cc1 (configuration not stated) : 116
34) Cc1occc1-c1nc2s/c(=C\c3cn(-c4ccccc4)nc3-c3ccccc3)c(=O)n2n1 : 101
35) COc1cc2c3c(n(CCCN4CCCCC4)c(=O)c2cc1OC)-c1cc2c(cc1C3=O)OCO2 : -96.9
36) O=C1c2c(c3c4cccnc4[nH]c3c3ccc4ccccc4c23)C(=O)N1CCN1CCCCC1 : 44.8
37) CCC(C)[C@H]1OC(=O)[C@H](C(C)C)N(C)C(=O)[C@@H](C(C)C)OC(=O)[C@H](C(C)C)N(C)C(=O)[C@@H](C(C)CC)OC(=O)[C@H](C(C)C)N(C)C1=O (some centres not stated) : 6.93

Origin of measurements: PubChem BioAssay (NCI)
